A collection of sequences and their measured ETS1 binding intensity
- TARGET OR TEST SYSTEM: ETS1 (UniProt P14921)
- Sequence: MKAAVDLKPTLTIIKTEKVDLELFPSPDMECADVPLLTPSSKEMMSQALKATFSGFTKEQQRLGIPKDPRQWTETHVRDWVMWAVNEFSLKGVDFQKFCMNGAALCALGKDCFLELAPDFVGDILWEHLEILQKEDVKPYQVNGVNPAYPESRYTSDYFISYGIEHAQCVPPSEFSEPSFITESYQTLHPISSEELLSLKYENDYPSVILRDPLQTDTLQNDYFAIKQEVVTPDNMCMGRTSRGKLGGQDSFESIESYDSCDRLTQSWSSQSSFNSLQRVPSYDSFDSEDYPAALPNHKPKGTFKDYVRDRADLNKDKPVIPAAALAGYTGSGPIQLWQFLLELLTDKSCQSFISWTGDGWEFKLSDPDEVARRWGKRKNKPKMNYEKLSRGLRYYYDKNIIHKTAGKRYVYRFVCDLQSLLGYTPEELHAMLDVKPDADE
- TEST: ETS1 binding intensity (PBM fluorescence), ETS1 alone (arbitrary fluorescence units); higher = stronger binding
- MEASUREMENT CONTEXT: ETS1 concentration 1 nM; RUNX1 concentration 0 nM
Write the number on its own, no unit after it.

Solved cases (2 shown):
RESIDUES	ETS1 binding intensity
CCACCACTCTAAGCAGGATGCGGTGCGACCCAAGAG	1390
AACAGGAAGTGGTCTTAGAGATCATGCGGTTCAGAG	2220

Now turn to the next sequence.
Query :: What measured ETS1 binding intensity is associated with CGTAGCGAGGAGCGGAAAACGCGGTAACCAAGGCGG on ETS1 (UniProt P14921)?
Result :: 732

* * *

A collection of sequences and their measured RUNX1 binding intensity
- TARGET OR TEST SYSTEM: RUNX1 (UniProt Q01196)
- Sequence (Q01196 whole entry): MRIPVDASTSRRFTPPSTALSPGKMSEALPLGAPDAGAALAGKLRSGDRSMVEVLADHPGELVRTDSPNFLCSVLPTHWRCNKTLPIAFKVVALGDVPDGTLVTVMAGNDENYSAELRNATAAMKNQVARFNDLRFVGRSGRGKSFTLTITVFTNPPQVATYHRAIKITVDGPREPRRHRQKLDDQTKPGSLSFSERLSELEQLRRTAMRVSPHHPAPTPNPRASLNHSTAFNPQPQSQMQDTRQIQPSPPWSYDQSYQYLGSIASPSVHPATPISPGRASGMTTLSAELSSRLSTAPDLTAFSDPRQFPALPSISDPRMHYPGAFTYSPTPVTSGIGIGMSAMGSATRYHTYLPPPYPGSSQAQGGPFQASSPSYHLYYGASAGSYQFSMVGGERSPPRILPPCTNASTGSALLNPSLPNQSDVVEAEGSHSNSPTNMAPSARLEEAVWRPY
- TEST: RUNX1 binding intensity (PBM fluorescence), RUNX1 alone (arbitrary fluorescence units); higher = stronger binding
- MEASUREMENT CONTEXT: RUNX1 concentration 2 nM; ETS1 concentration 0 nM
Write the number on its own, no unit after it.

RESIDUES	RUNX1 binding intensity
GGCTGCGACTTCCGGACTGCTCCTGGCCGCAGGGGG	813

Query :: Field request: RUNX1 binding intensity | item: CTGCAGATGCATTTCCTTTTTGTGGTAGCAAGCGTG
Result :: 805

Query :: Now the sequence TTGATTGGAGCAGGATGTGGTCAGAACAGTATGCAG
Result :: 794

* * *

- TARGET OR TEST SYSTEM: ETS1 (UniProt P14921)
- Sequence: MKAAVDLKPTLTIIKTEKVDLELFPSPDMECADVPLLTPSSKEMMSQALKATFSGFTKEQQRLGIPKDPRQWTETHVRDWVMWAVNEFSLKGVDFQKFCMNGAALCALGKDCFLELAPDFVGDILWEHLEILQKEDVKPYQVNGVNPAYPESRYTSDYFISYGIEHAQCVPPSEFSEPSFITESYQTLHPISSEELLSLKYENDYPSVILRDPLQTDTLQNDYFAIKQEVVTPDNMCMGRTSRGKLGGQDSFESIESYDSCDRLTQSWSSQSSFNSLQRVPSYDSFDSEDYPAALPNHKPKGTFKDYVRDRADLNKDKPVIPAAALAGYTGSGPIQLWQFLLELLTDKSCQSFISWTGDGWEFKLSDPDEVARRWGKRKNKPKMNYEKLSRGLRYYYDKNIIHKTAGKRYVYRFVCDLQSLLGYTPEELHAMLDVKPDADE
- TEST: ETS1 binding intensity (PBM fluorescence) in presence of RUNX1, normalised to ETS1-only experiment (arbitrary fluorescence units); higher = stronger binding
- MEASUREMENT CONTEXT: ETS1 concentration 1 nM; RUNX1 concentration 25 nM
RESULT TYPE: ETS1 binding intensity

Solved cases (6 shown):
RESIDUES	ETS1 binding intensity
CTGACACTTCCGGGAGCCTTGTAGCCACAGGAATCA	2590
CCCTTCGCTTCCGCTCCGCGTTCCCACAATGCAGTG	1090
CCCCTCCCTGCTTCCTGTGTGGTGAGGGGTGATCAG	2040
CGGGGACCACTGTCAGGATGTGGTCACTGGAGTCAC	8350
GCTACGGGTTCCCCGGATGGAGCCGCAGTCCGGCCG	715
TCCTTAATGGTTCCGGCGGCAGGGACCGCAGCGACG	526

Query :: Field request: ETS1 binding intensity | item: AGGCAGGGAAGTGGCGCAGAGGAGACCACAGGACAC
Result :: 803

Query :: Now the sequence CAGGGAAGTTCGAACTGGGCGGGGCCCACCGCAGTT
Result :: 488

Query :: Now the sequence CTACCGGAAATGCAGCACCACGTAAAATGCGGTCGG
Result :: 15800

* * *

- TARGET OR TEST SYSTEM: RUNX1 (UniProt Q01196)
- TEST: RUNX1 binding intensity (PBM fluorescence) in presence of ETS1, normalised to RUNX1-only experiment (arbitrary fluorescence units); higher = stronger binding
- MEASUREMENT CONTEXT: RUNX1 concentration 2 nM; ETS1 concentration 25 nM
RESULT TYPE: RUNX1 binding intensity
Write the number on its own, no unit after it.

Solved cases (3 shown):
RESIDUES	RESULT TYPE	ASSAY RESULT
GAAACCGGAAGCGGCGGCTGTCCGCGGTGCCGGCTG	RUNX1 binding intensity	1550
CCCCTATATCACAGGATGCCGCAAACTAGTAACAGG	RUNX1 binding intensity	993
CCTGAAGCTCATGCGGAAAACCCACAAAGGGGTGCC	RUNX1 binding intensity	828

Query :: Field request: RUNX1 binding intensity | item: CATAGGAAGTGCTCAGCTCTCCTCCACCGCAAGTTT
Result :: 879

Query :: Now the sequence TCTGCCGCCAGCCCATCCGCGACCGCATCCAGATCT
Result :: 1210

Query :: Now the sequence GTCCCACGCGACTTCCTGCGGGAAACATGGCGGCAT
Result :: 2170

* * *

- TARGET OR TEST SYSTEM: RUNX1 (UniProt Q01196)
- TEST: RUNX1 binding intensity (PBM fluorescence), RUNX1 alone (arbitrary fluorescence units); higher = stronger binding
- MEASUREMENT CONTEXT: RUNX1 concentration 2 nM; ETS1 concentration 0 nM
A collection of sequences and their measured RUNX1 binding intensity
Write the number on its own, no unit after it.

Solved cases (2 shown):
RESIDUES	TARGET OR TEST SYSTEM	RUNX1 binding intensity
GCTGGTATGGCAGGAAGTTTCTCACCACAGTATACT	RUNX1 (UniProt Q01196)	780
GAGAGGAGGATGTTGTCAGATACCCACAAATGAGAA	RUNX1 (UniProt Q01196)	812

Now turn to the next sequence.
Query :: Field request: RUNX1 binding intensity | item: AGGCGGCAGGAAATGACCCCATCCCGCAGCCTGGGC
Result :: 806

* * *

A collection of sequences and their measured ETS1 binding intensity
- TARGET OR TEST SYSTEM: ETS1 (UniProt P14921)
- Sequence: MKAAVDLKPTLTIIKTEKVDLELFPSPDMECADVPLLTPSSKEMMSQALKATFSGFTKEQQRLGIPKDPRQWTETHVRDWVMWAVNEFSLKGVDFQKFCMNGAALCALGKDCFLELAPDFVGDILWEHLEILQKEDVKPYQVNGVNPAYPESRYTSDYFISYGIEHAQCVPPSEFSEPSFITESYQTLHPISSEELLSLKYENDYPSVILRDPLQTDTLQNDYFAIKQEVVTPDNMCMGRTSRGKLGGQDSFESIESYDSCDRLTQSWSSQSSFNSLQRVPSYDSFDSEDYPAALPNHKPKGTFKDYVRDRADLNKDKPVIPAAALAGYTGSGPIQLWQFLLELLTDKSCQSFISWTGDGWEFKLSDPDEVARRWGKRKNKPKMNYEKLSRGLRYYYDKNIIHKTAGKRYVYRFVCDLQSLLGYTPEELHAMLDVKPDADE
- TEST: ETS1 binding intensity (PBM fluorescence), ETS1 alone (arbitrary fluorescence units); higher = stronger binding
- MEASUREMENT CONTEXT: ETS1 concentration 1 nM; RUNX1 concentration 0 nM

Solved cases (4 shown):
RESIDUES	TARGET OR TEST SYSTEM	ASSAY RESULT
AGCTCAATTTCCTGGCGTGTAACATGGCCACAAGGG	ETS1 (UniProt P14921)	827
GGTCCGGATGTATAAAGCGCGGCCCCCTGCGGGGAG	ETS1 (UniProt P14921)	910
CGTGGCGGAAGCCGCGGGGACTGCGGGGGCGGAGTG	ETS1 (UniProt P14921)	537
AACACCACTTCCTACTGTGAAACCACACTGTATTTG	ETS1 (UniProt P14921)	456

Query :: Field request: ETS1 binding intensity | item: TCCCGAGAGTGCGGCGGAAACCACGCGGCGCCGCCG
Result :: 1360

Query :: Now the sequence AGTGGAGTAGGAACCGGAAAACCACAATAAGTCCCA
Result :: 2170
